pIC50: −log10 of the molar value.
Note to self: these molecules have pIC50 reported for UniProt:P05181 in various publications.

{"molecule": "COc1c(O)c(C)cc2c1C(=O)c1c(O)cccc1C2=O", "tested-target": "UniProt:P05181", "pIC50": "< 4.30"}
{"molecule": "O=C1CC(c2cc(-c3c(O)ccc4c(=O)cc(-c5ccc(O)cc5)oc34)c(O)cc2O)Oc2cc(O)cc(O)c21 (centres unmarked)", "tested-target": "UniProt:P05181", "pIC50": "< 4.70"}
{"molecule": "O=c1cc(-c2ccc(O)cc2)oc2c(-c3c(O)cc(O)c4c(=O)cc(-c5ccc(O)cc5)oc34)c(O)cc(O)c12", "tested-target": "UniProt:P05181", "pIC50": 5.64}
{"molecule": "COc1ccc(C(=C2C=CC(=O)C=C2)c2c(-c3ccc(O)cc3)ccc(CO)c2C#Cc2ccc(O)cc2)cc1", "tested-target": "UniProt:P05181", "pIC50": "< 4.30"}
{"molecule": "CCCCCCCCCCCCC/C=C/[C@@H](O)[C@H](CO)NC(C)=O", "tested-target": "UniProt:P05181", "pIC50": "< 5.00"}
